- assayComment: Binding affinity to EYPC/cholesterol small unilamellar vesicles assessed as intrinsic tryptophan acrylamide quenching constant by fluorescence assay (reference value: 5.95 to 7.56 /M)
Provide the reported KSV of each item.
Numbers only, in M⁻¹.

These recorded examples may help you get a feel for the data.
Value of measured KSV for the entry CC[C@H](C)[C@H](NC(=O)[C@H](CC(C)C)NC(=O)[C@@H](CCCCN)NC(=O)[C@@H](NC(=O)[C@@H](NC(=O)[C@H](CCCNC(=N)N)NC(=O)[C@@H](N)CCCCN)[C@@H](C)CC)C(C)C)C(=O)N[C@@H](CC(C)C)C(=O)N[C@@H](CCCCN)C(=O)N[C@@H](Cc1c[nH]c2ccccc12)C(=O)N[C@@H](CC(C)C)C(=O)N[C@@H](CCCNC(=N)N)C(N)=O : 2.21

Value of measured KSV for the entry CC[C@H](C)[C@H](NC(=O)[C@H](CCCNC(=N)N)NC(=O)[C@@H](N)CCCCN)C(=O)N[C@H](C(=O)N[C@@H](CCCCN)C(=O)N[C@H](CC(C)C)C(=O)N[C@H](C(=O)N[C@@H](CC(C)C)C(=O)N[C@@H](CCCCN)C(=O)N[C@@H](Cc1c[nH]c2ccccc12)C(=O)N[C@@H](CC(C)C)C(=O)N[C@@H](CCCNC(=N)N)C(N)=O)[C@@H](C)CC)C(C)C : 2.9

Here is another compound to look at.
Value of measured KSV for the entry CC[C@H](C)[C@H](NC(=O)[C@H](CCCNC(=N)N)NC(=O)[C@@H](N)CCCCN)C(=O)N[C@H](C(=O)N[C@@H](CCCCN)C(=O)N[C@@H](CC(C)C)C(=O)N[C@H](CC(C)C)C(=O)N[C@@H](CC(C)C)C(=O)N[C@@H](CCCCN)C(=O)N[C@@H](Cc1c[nH]c2ccccc12)C(=O)N[C@@H](CC(C)C)C(=O)N[C@@H](CCCNC(=N)N)C(N)=O)C(C)C : 2.98

* * *

- System: Staphylococcus aureus
- assayComment: Antibacterial activity against methicillin resistant Staphylococcus aureus CCARM 3090 after 24 hrs
- Assay type: functional
- conditionNotes: CCARM 3090, 24 h
reportedMetric: MIC (µM)
Answers are plain numbers, in µM.

Tested on Staphylococcus aureus: CC[C@H](C)[C@H](NC(=O)[C@H](CC(C)C)NC(=O)[C@@H](CCCCN)NC(=O)[C@@H](NC(=O)[C@@H](NC(=O)[C@H](CCCNC(=N)N)NC(=O)[C@@H](N)CCCCN)[C@@H](C)CC)C(C)C)C(=O)N[C@@H](CC(C)C)C(=O)N[C@@H](CCCCN)C(=O)N[C@@H](Cc1c[nH]c2ccccc12)C(=O)N[C@@H](CC(C)C)C(=O)N[C@@H](CCCNC(=N)N)C(N)=O . Observed MIC: 4

Could I get MIC for every one of these entries?
1. CC[C@H](C)[C@H](NC(=O)[C@H](CC(C)C)NC(=O)[C@H](CCCCN)NC(=O)[C@@H](NC(=O)[C@@H](NC(=O)[C@H](CCCNC(=N)N)NC(=O)[C@@H](N)CCCCN)[C@@H](C)CC)C(C)C)C(=O)N[C@@H](CC(C)C)C(=O)N[C@@H](CCCCN)C(=O)N[C@@H](Cc1c[nH]c2ccccc12)C(=O)N[C@@H](CC(C)C)C(=O)N[C@@H](CCCNC(=N)N)C(N)=O
2. CC[C@H](C)[C@H](NC(=O)[C@H](CCCNC(=N)N)NC(=O)[C@@H](N)CCCCN)C(=O)N[C@H](C(=O)N[C@@H](CCCCN)C(=O)N[C@@H](CC(C)C)C(=O)N[C@H](CC(C)C)C(=O)N[C@@H](CC(C)C)C(=O)N[C@@H](CCCCN)C(=O)N[C@@H](Cc1c[nH]c2ccccc12)C(=O)N[C@@H](CC(C)C)C(=O)N[C@@H](CCCNC(=N)N)C(N)=O)C(C)C
3. CC[C@H](C)[C@H](NC(=O)[C@H](CCCNC(=N)N)NC(=O)[C@@H](N)CCCCN)C(=O)N[C@H](C(=O)N[C@@H](CCCCN)C(=O)N[C@H](CC(C)C)C(=O)N[C@H](C(=O)N[C@@H](CC(C)C)C(=O)N[C@@H](CCCCN)C(=O)N[C@@H](Cc1c[nH]c2ccccc12)C(=O)N[C@@H](CC(C)C)C(=O)N[C@@H](CCCNC(=N)N)C(N)=O)[C@@H](C)CC)C(C)C

[8, 4, 4]
